- Test system: Na,K-ATPase
- protocol: Na,K-ATPase activity and stability with different phosphatidyl serines (FIG. 7)
- Format: biochemical
- setup_conditions: measured immediately after elution from the BD Talon beads
Response field label: string, one of 1 (NKA activity strictly below 10 µmol/min/mg) or -1.

Reference set, count: 5
CCCCCCCCCCCCCC(=O)OC[C@H](COP(=O)(O)OC[C@H](N)C(=O)O)OC(=O)CCCCCCCCCCCCC    -1
CCCCCCCC/C=C\CCCCCCCC(=O)O[C@H](COC(=O)CCCCCCCCCCCCCCC)COP(=O)(O)OC[C@H](N)C(=O)O    -1
CCCCCCCC/C=C\CCCCCCCC(=O)O[C@H](COC(=O)CCCCCCCCCCCCCCCCC)COP(=O)(O)OC[C@H](N)C(=O)O    -1
CCCCCCCCCCCCCCCCCC(=O)OC[C@H](COP(=O)(O)OC[C@H](N)C(=O)O)OC(=O)CCCCCCCCCCCCCCCCC    1
CCCCCCCC/C=C\CCCCCCCC(=O)OC[C@H](COP(=O)(O)OC[C@H](N)C(=O)O)OC(=O)CCCCCCC/C=C\CCCCCCCC    -1

Now take the following compound into account.
IN: Dear colleague, could you confirm whether NKA activity of CCCCCCCCCCCCCCCC(=O)OC[C@H](COP(=O)(O)OC[C@H](N)C(=O)O)OC(=O)CCCCCCCCCCCCCCC falls below 10 µmol/min/mg? Thanks.
OUT: 1

====

- target_under_test: human α1β1 (Homo sapiens, UniProt P05023)
parameter: IC50 (nM)
// return numeric value only (unit: nM, not printed)

IN: Identify the measured IC50 of CO[C@H]1[C@H](O)[C@H](O[C@H]2CC[C@@]3(C)[C@H](CC[C@@H]4[C@@H]3CC[C@]3(C)[C@@H](C5=CC(=O)OC5)CC[C@]43O)C2)O[C@@H](C)[C@@H]1O for human α1β1 (Homo sapiens, UniProt P05023).
OUT: 50

====

- target_under_test: porcine α1β1 (Sus scrofa)
- Construct: made in house; host or cells: Pichia pastoris SMD1165
- protocol: Na,K-ATPase activity of porcine α1β1 with different phospholipids (FIG. 6A)
- Assay type: biochemical
- setup_conditions: porcine α1β1, FIG. 6A
parameter: maintenance of Na,K-ATPase activity with phospholipid

CCCCCCCC/C=C\CCCCCCCC(=O)OC[C@H](COP(=O)(O)OC1C(O)C(O)C(O)[C@@H](O)C1O)OC(=O)CCCCCCC/C=C\CCCCCCCC (stereo partly shown) [DOPI]    DOPS>DOPI>>DOPE
CCCCCCCC/C=C\CCCCCCCC(=O)OC[C@H](COP(=O)(O)OCCN)OC(=O)CCCCCCC/C=C\CCCCCCCC [DOPE]    DOPS>DOPI>>DOPE
CCCCCCCC/C=C\CCCCCCCC(=O)OC[C@H](COP(=O)(O)OC[C@H](N)C(=O)O)OC(=O)CCCCCCC/C=C\CCCCCCCC [DOPS]    DOPS>DOPI>>DOPE

====

- target_under_test: human α2β1 (Homo sapiens)
- Construct: The coding regions were excised with XbaI and subcloned
- protocol: biochemical
- setup_conditions: K0.5 for inhibition, α2, 37° C., FIG. 18B, reaction time not stated
parameter: IC50 (µM)
// return numeric value only (unit: µM, not printed)

IN: Identify the measured IC50 of CO[C@H]1[C@H](O)[C@H](O[C@H]2CC[C@@]3(C)[C@H](CC[C@@H]4[C@@H]3CC[C@]3(C)[C@@H](C5=CC(=O)OC5)CC[C@]43O)C2)O[C@@H](C)[C@@H]1O for human α2β1 (Homo sapiens).
OUT: 0.029
